Test system: MDCKII-MDR1 cells (P-glycoprotein)
Test details: MDCKII-MDR1 permeability assay
Format: in vitro ADME, canine cells with over-expressed human MDR1 gene
Recorded conditions: permeability class

Compound: OC(Cn1cc(Cn2cnc3c(Cl)ncnc32)nn1)c1ccc(Br)cc1 (stereo not shown) [Compound 39b]
Permeability: MODERATE

Compound: OC(Cn1cc(Cn2cnc3ccccc32)nn1)c1ccc(Br)cc1 (stereo not shown) [Compound 34b]
Permeability: MODERATE

Compound: O[C@@H](Cn1cc(Cn2cnc3c(Cl)ncnc32)nn1)c1ccc(C(F)(F)F)cc1 [Compound (R)-40b]
Permeability: MODERATE

Compound: O[C@H](Cn1cc(Cn2cnc3c(Cl)ncnc32)nn1)c1ccc(C(F)(F)F)cc1 [Compound (S)-40b]
Permeability: MODERATE

Compound: OCC(c1ccc(Br)cc1)n1cc(Cn2ccc3c(Cl)ncnc32)nn1 (stereo not shown) [Compound 44a]
Permeability: HIGH

Compound: OCC(c1ccc(Br)cc1)n1cc(Cn2ccc3ccccc32)nn1 (stereo not shown) [Compound 29a]
Permeability: HIGH

Compound: OCC(c1ccc(C(F)(F)F)cc1)n1cc(Cn2cnc3c(Cl)ncnc32)nn1 (stereo not shown) [Compound 40a]
Permeability: MODERATE

Each recorded value in this set is attributed to paper PMC11940194.
